target: Acetyl-CoA Hydrolase from S. cerevisiae (Saccharomyces cerevisiae); experiment: Substrate specificity, colorimetric assay (DNTB, A412); type: biochemical; details: read-out: Relative Activity (%)
measurement.type: activity at 250 µM (%)
Reply with just the number (in %).

Example entries begin here.
CCC(=O)SCCNC(=O)CCNC(=O)[C@H](O)C(C)(C)COP(=O)(O)OP(=O)(O)OC[C@H]1O[C@@H](n2cnc3c(N)ncnc32)[C@H](O)[C@@H]1OP(=O)(O)O [Propionyl-CoA] :: 9
CC(=O)CC(=O)SCCNC(=O)CCNC(=O)[C@H](O)C(C)(C)COP(=O)(O)OP(=O)(O)OC[C@H]1O[C@@H](n2cnc3c(N)ncnc32)[C@H](O)[C@@H]1OP(=O)(O)O [Acetoacetyl-CoA] :: 5
CC(C)(COP(=O)(O)OP(=O)(O)OC[C@H]1O[C@@H](n2cnc3c(N)ncnc32)[C@H](O)[C@@H]1OP(=O)(O)O)[C@@H](O)C(=O)NCCC(=O)NCCSC(=O)CCC(=O)O [Succinyl-CoA] :: 8
CC(C)(COP(=O)(O)OP(=O)(O)OC[C@H]1O[C@@H](n2cnc3c(N)ncnc32)[C@H](O)[C@@H]1OP(=O)(O)O)[C@@H](O)C(=O)NCCC(=O)NCCSC(=O)CC(=O)O [Malonyl-CoA] :: 1
CC(=O)SCCNC(=O)CCNC(=O)[C@H](O)C(C)(C)COP(=O)(O)OP(=O)(O)OC[C@H]1O[C@@H](n2cnc3c(N)ncnc32)[C@H](O)[C@@H]1OP(=O)(O)O [Acetyl-CoA, acetyl coenzyme A] :: 100
CCCC(=O)SCCNC(=O)CCNC(=O)[C@H](O)C(C)(C)COP(=O)(O)OP(=O)(O)OC[C@H]1O[C@@H](n2cnc3c(N)ncnc32)[C@H](O)[C@@H]1OP(=O)(O)O [Butyryl-CoA] :: 4

We next turn to a different compound, shown below.
Consider CCCCCCCCCCCCCC(=O)SCCNC(=O)CCNC(=O)[C@H](O)C(C)(C)COP(=O)(O)OP(=O)(O)OC[C@H]1O[C@@H](n2cnc3c(N)ncnc32)[C@H](O)[C@@H]1OP(=O)(O)O [Myristoyl-CoA] . Its measured activity at 250 µM is 3

---

target: Acetyl-CoA Hydrolase from S. cerevisiae (Saccharomyces cerevisiae, UniProt P32316); test: biochemical; conditions: addition 1 mM; 100 mM potassium phosphate, pH 7.4; None = 100
Sequence (P32316 whole entry): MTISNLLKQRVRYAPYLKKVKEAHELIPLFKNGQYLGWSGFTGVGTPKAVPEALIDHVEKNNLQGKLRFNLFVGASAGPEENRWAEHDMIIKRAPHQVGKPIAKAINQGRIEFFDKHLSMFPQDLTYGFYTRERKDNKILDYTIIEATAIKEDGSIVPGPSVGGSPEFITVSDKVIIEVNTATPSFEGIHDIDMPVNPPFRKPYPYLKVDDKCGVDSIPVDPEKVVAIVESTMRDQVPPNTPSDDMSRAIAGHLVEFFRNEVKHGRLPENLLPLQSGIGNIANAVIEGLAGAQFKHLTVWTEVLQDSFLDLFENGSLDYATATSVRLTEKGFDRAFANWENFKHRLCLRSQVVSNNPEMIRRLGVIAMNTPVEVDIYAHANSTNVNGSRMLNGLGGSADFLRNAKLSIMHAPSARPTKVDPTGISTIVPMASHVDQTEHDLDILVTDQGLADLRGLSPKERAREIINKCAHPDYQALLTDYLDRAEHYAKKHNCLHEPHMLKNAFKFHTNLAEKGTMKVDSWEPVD
This section presents compounds with their documented Enzyme Activity (%) values.
Reply with just the number (in %).

[Cl][Cd][Cl] :: 91

Consider O=S(=O)([O-])[O-].[Cu+2] . Its measured Enzyme Activity (%) is 94

Consider [Cl-].[Cl-].[Co+2] . Its measured Enzyme Activity (%) is 86

Consider O=S(=O)([O-])[O-].[Fe+2] . Its measured Enzyme Activity (%) is 98

Consider [Cl][Mn][Cl] . Its measured Enzyme Activity (%) is 84

Consider [Ca+2].[Cl-].[Cl-] . Its measured Enzyme Activity (%) is 97

Consider O=S(=O)([O-])[O-].[Mg+2] . Its measured Enzyme Activity (%) is 98

Consider [Cl-].[Cl-].[Mg+2] . Its measured Enzyme Activity (%) is 95

Consider O=S(=O)([O-])[O-].[Zn+2] . Its measured Enzyme Activity (%) is 88

---

target: Acetyl-CoA Hydrolase from S. cerevisiae (Saccharomyces cerevisiae, UniProt P32316); test: biochemical; settings: pH 7.4, read-out: Enzyme Activity (%)
Each record is given Satisfied if its reported remaining activity at 5000 µM is strictly below 60%. Records at or above 60% are given Not satisfied.

CC(=O)SCCNC(=O)CCNC(=O)[C@H](O)C(C)(C)COP(=O)(O)OP(=O)(O)OC[C@H]1O[C@@H](n2cnc3c(N)ncnc32)[C@H](O)[C@@H]1OP(=O)(O)O [Acetyl-CoA, acetyl coenzyme A] :: Satisfied

Now turn to the next compound.
Please state whether remaining activity at 5000 µM is below 60% for CC(C)(COP(=O)(O)OP(=O)(O)OC[C@H]1O[C@@H](n2cnc3c(N)ncnc32)[C@H](O)[C@@H]1OP(=O)(O)O)[C@@H](O)C(=O)NCCC(=O)NCCSC(=O)CCC(=O)O [Succinyl-CoA] Satisfied

---

biological target: UniProt P32316; assay: biochemical; settings: pH 7.4, read-out: Enzyme Activity (%)
measurement.type: remaining activity at 100 µM

Example entries begin here.
Nc1ncnc2c1ncn2[C@@H]1O[C@H](COP(=O)(O)OP(=O)(O)OP(=O)(O)O)[C@@H](O)[C@H]1O [ATP] :: 101%
CCCCCCCCCCCCCC(=O)SCCNC(=O)CCNC(=O)[C@H](O)C(C)(C)COP(=O)(O)OP(=O)(O)OC[C@H]1O[C@@H](n2cnc3c(N)ncnc32)[C@H](O)[C@@H]1OP(=O)(O)O [Myristoyl-CoA] :: 93%
CC(=O)CC(=O)SCCNC(=O)CCNC(=O)[C@H](O)C(C)(C)COP(=O)(O)OP(=O)(O)OC[C@H]1O[C@@H](n2cnc3c(N)ncnc32)[C@H](O)[C@@H]1OP(=O)(O)O [Acetoacetyl-CoA] :: 98%

Consider NC(=O)C1=CN([C@@H]2O[C@H](COP(=O)(O)OP(=O)(O)OC[C@H]3O[C@@H](n4cnc5c(N)ncnc54)[C@H](O)[C@@H]3O)[C@@H](O)[C@H]2O)C=CC1 [βNADH] . Its measured remaining activity at 100 µM is 83%

Consider NC(=O)C1=CN([C@@H]2O[C@H](COP(=O)(O)OP(=O)(O)OC[C@H]3O[C@@H](n4cnc5c(N)ncnc54)[C@H](OP(=O)(O)O)[C@@H]3O)[C@@H](O)[C@H]2O)C=CC1 [βNADPH] . Its measured remaining activity at 100 µM is 99%

Consider CC(C)(COP(=O)(O)OP(=O)(O)OC[C@H]1O[C@@H](n2cnc3c(N)ncnc32)[C@H](O)[C@@H]1OP(=O)(O)O)[C@@H](O)C(=O)NCCC(=O)NCCSC(=O)CC(=O)O [Malonyl-CoA] . Its measured remaining activity at 100 µM is 93%

Consider NC(=O)c1ccc[n+]([C@@H]2O[C@H](COP(=O)([O-])OP(=O)(O)OC[C@H]3O[C@@H](n4cnc5c(N)ncnc54)[C@H](O)[C@@H]3O)[C@@H](O)[C@H]2O)c1 [βNAD] . Its measured remaining activity at 100 µM is 100%

---

target: Acetyl-CoA Hydrolase from S. cerevisiae (Saccharomyces cerevisiae, UniProt P32316); assay: biochemical; conditions: pH 7.4, read-out: Enzyme Activity (%)
Range-based classes on measured remaining activity at 1000 µM: label 0: < 80%; label 1: ≥ 80% and < 90%; label 2: ≥ 90%

Bin this entry: NC(=O)c1ccc[n+]([C@@H]2O[C@H](COP(=O)([O-])OP(=O)(O)OC[C@H]3O[C@@H](n4cnc5c(N)ncnc54)[C@H](O)[C@@H]3O)[C@@H](O)[C@H]2O)c1 [βNAD] label 2

Bin this entry: CCCC(=O)SCCNC(=O)CCNC(=O)[C@H](O)C(C)(C)COP(=O)(O)OP(=O)(O)OC[C@H]1O[C@@H](n2cnc3c(N)ncnc32)[C@H](O)[C@@H]1OP(=O)(O)O [Butyryl-CoA] label 1

Bin this entry: CCCCCCCCCCCCCC(=O)SCCNC(=O)CCNC(=O)[C@H](O)C(C)(C)COP(=O)(O)OP(=O)(O)OC[C@H]1O[C@@H](n2cnc3c(N)ncnc32)[C@H](O)[C@@H]1OP(=O)(O)O [Myristoyl-CoA] label 1

Bin this entry: CC(=O)SCCNC(=O)CCNC(=O)[C@H](O)C(C)(C)COP(=O)(O)OP(=O)(O)OC[C@H]1O[C@@H](n2cnc3c(N)ncnc32)[C@H](O)[C@@H]1OP(=O)(O)O [Acetyl-CoA, acetyl coenzyme A] label 0

Bin this entry: CC(C)(COP(=O)(O)OP(=O)(O)OC[C@H]1O[C@@H](n2cnc3c(N)ncnc32)[C@H](O)[C@@H]1OP(=O)(O)O)[C@@H](O)C(=O)NCCC(=O)NCCSC(=O)CC(=O)O [Malonyl-CoA] label 1

Bin this entry: NC(=O)C1=CN([C@@H]2O[C@H](COP(=O)(O)OP(=O)(O)OC[C@H]3O[C@@H](n4cnc5c(N)ncnc54)[C@H](OP(=O)(O)O)[C@@H]3O)[C@@H](O)[C@H]2O)C=CC1 [βNADPH] label 2

---

biological target: Acetyl-CoA Hydrolase from S. cerevisiae (Saccharomyces cerevisiae); assay: biochemical
measurement.type: effect on yeast enzyme activity (in words)

Nc1ncnc2c1ncn2[C@@H]1O[C@H](COP(=O)(O)OP(=O)(O)OP(=O)(O)O)[C@@H](O)[C@H]1O :: not affected
Nc1ncnc2c1ncn2[C@@H]1O[C@H](COP(=O)(O)OP(=O)(O)O)[C@@H](O)[C@H]1O :: not affected
